B1: PTPRD (parent)
chain: LTKLREMGREKCHQYWPAERSARY

# Variants of: B1
# protocol: protein stability index of a GFP-peptide fusion (GPS, HEK-293T) (PSI 1-6); higher = more stable;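 note: lentivirally expressed fusions sorted by FACS into six bins by GFP to DsRed ratio, PSI derived from sequencing read proportions per bin multiplied by bin number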
# applied_conditions: c terminus: a fixed tail appended
Some variants, each annotated with its measured protein stability index.

# item_sequence, protein stability index
records = [
    ("LNKLREMGREKCHQYWPAERSARY", 2.29),
    ("LTKLREMGREKCHQYWPDERSARY", 2.49),
    ("LTLLREMGREKCHQYWPAERSARY", 2.21),
    ("LTKLREMGLEKCHQYWPAERSARY", 2.73),
    ("LTKLREMGREKCHQYRPAERSARY", 3.29),
    ("LTKLRCMGREKCHQYWPAERSARY", 1.75),
    ("LTKLREMGREKCHQYWPAERSARS", 3.01),
    ("LTKLREMGEEKCHQYWPAERSARY", 2.86),
    ("LTKLREHGREKCHQYWPAERSARY", 2.75),
    ("LTKLREMGREKCHQYWNAERSARY", 1.84),
    ("LTKLREMGAEKCHQYWPAERSARY", 2.64),
    ("LTKLREMGREKCHQYWPAMRSARY", 2.19),
    ("LTKLREMGREKCHQYWPAERSPRY", 2.65),
    ("LTKLRHMGREKCHQYWPAERSARY", 2.09),
    ("LTKLREMGRETCHQYWPAERSARY", 2.5),
    ("LTKLREMGREKCHQYWPPERSARY", 2.39),
    ("LTKLREMGREKCDQYWPAERSARY", 3.17),
    ("STKLREMGREKCHQYWPAERSARY", 2.59),
    ("LTKLREMGREKCHQYWPQERSARY", 2.53),
    ("LTKLREMPREKCHQYWPAERSARY", 2.44),
    ("LTKLREMGREKCHQYWPAERSVRY", 2.64),
    ("LLKLREMGREKCHQYWPAERSARY", 2.15),
    ("LTKLREMGREKCHQPWPAERSARY", 2.64),
    ("LTKQREMGREKCHQYWPAERSARY", 3.1),
    ("LTKLREMGREKCHHYWPAERSARY", 2.95),
    ("LTKLREMGREKCHQYWPAERSQRY", 2.54),
    ("LTKLREMGQEKCHQYWPAERSARY", 3.05),
    ("LTKLREMGREKCHQYWPAERSWRY", 1.83),
    ("LTKLREMGREKCHQYNPAERSARY", 3.5),
    ("LTKLREMWREKCHQYWPAERSARY", 1.85),
    ("LTKLREMGREKCHQYFPAERSARY", 2.91),
    ("LTKLRYMGREKCHQYWPAERSARY", 1.7),
    ("LTKIREMGREKCHQYWPAERSARY", 2.58),
    ("LTKLREYGREKCHQYWPAERSARY", 2.7),
    ("LTKLREMGREKCHQGWPAERSARY", 3.46),
    ("LTKLREMGREWCHQYWPAERSARY", 1.89),
    ("LTKLREMGIEKCHQYWPAERSARY", 2.29),
    ("LTKLREMGREKCHQYWPAERSACY", 2.06),
    ("LTKLREMGREKCHQYWLAERSARY", 2.01),
    ("LTKLREMGREKCHQYWGAERSARY", 2.29),
    ("LTKLREMGREKCHQYWPAERSAFY", 1.79),
    ("LTKLREMGREACHQYWPAERSARY", 3.23),
    ("LTKLRFMGREKCHQYWPAERSARY", 2.45),
    ("LTKLREMCREKCHQYWPAERSARY", 2.39),
    ("LTKLREMGREKCHQYWPAERSCRY", 2.15),
    ("LTKLREMGREKCHVYWPAERSARY", 2.61),
    ("LTKLREMGREKCHQYWPAERSAAY", 2.42),
]
